B1: TPR t1 (parent)
chain: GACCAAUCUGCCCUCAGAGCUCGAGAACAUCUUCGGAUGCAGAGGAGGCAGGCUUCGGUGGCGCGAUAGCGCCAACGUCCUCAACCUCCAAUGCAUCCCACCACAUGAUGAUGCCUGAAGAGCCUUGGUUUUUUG

Variants of: B1
MEASUREMENT PROTOCOL: polymerase ribozyme fitness, log enrichment relative to wild type (log ratio); higher = more active; in vitro selection for triplet polymerase activity
Outcome: 1 for polymerase ribozyme fitness (log ratio) of at least -2; -1 for anything lower.

>  <VARIANT DESCRIPTOR>
G61U C86G

>  <CLASS NAME>
1

$$$$
>  <VARIANT DESCRIPTOR>
A2U G19U G25U A26G A27U

>  <CLASS NAME>
-1

$$$$
>  <VARIANT DESCRIPTOR>
G47C G77C C98U G113C U130C

>  <CLASS NAME>
-1

$$$$
>  <VARIANT DESCRIPTOR>
C15A G52A G61U C88A A95C U112C C124U

>  <CLASS NAME>
1

$$$$
>  <VARIANT DESCRIPTOR>
C8G G42A

>  <CLASS NAME>
1

$$$$
>  <VARIANT DESCRIPTOR>
C49G U130A

>  <CLASS NAME>
1

$$$$
>  <VARIANT DESCRIPTOR>
U9C G17U C20G G25C C115U

>  <CLASS NAME>
-1

$$$$

Cited source: the RNAGym collection of RNA variant scans (doi:10.1073/pnas.2313332121)
